Test: Cytotoxicity against human MT2 cells assessed as cell growth inhibition after 5 days by MTT assay
Format: cell-based
Details: time 5 day
CC50 at 120 h less than 80 µM is Fulfilled; CC50 at 120 h greater than or equal to 80 µM is Not fulfilled.

>  <Molecule>
N#Cc1cc2c(Oc3ccc(OS(=O)(=O)F)cc3OCCn3ccc(=O)[nH]c3=O)cc(Cl)cn2c1

>  <Label>
Fulfilled

$$$$
>  <Molecule>
N#Cc1cc(Cl)cc(Oc2ccc(S(=O)(=O)F)cc2OCCn2ccc(=O)[nH]c2=O)c1

>  <Label>
Not fulfilled

$$$$
>  <Molecule>
Cn1c(=O)ccn(CCOc2cc(OS(=O)(=O)F)ccc2Oc2cc(Cl)cc(C#N)c2)c1=O

>  <Label>
Fulfilled

$$$$
>  <Molecule>
N#Cc1cc(Cl)cc(Oc2cc(OS(=O)(=O)F)ccc2OCCn2ccc(=O)[nH]c2=O)c1

>  <Label>
Not fulfilled

$$$$
>  <Molecule>
Cc1cc(/C=C/C#N)cc(C)c1Nc1ccnc(Nc2ccc(C#N)cc2)n1

>  <Label>
Fulfilled

$$$$
>  <Molecule>
N#Cc1ccc2c(Oc3ccc(OS(=O)(=O)F)cc3OCCn3ccc(=O)[nH]c3=O)cccc2c1

>  <Label>
Fulfilled

$$$$
>  <Molecule>
N#Cc1cc(Cl)cc(Oc2ccc(OS(=O)(=O)F)cc2OCCn2ccc(=O)[nH]c2=O)c1

>  <Label>
Fulfilled

$$$$
>  <Molecule>
Cn1c(=O)ccn(CCOc2cc(OS(=O)(=O)F)ccc2Oc2cccn3cc(C#N)cc23)c1=O

>  <Label>
Fulfilled

$$$$
